System: PPARg:RXRa IVT, anti-PPARg (NR concentration 270 nM, RXRa partner concentration 90 nM)
experimental_protocol: PBM binding z-score (relative to random genomic background probes); higher = stronger binding; sequences stand for … in GC…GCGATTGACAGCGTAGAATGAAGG
Each entry below carries its reported PBM binding z-score.
quantity_kind: PBM binding z-score

                        sequence_input        quantity_kind  measured_value
 0  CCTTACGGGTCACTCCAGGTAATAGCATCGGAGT  PBM binding z-score            3.72
 1  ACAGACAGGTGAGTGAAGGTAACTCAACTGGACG  PBM binding z-score           0.507
 2  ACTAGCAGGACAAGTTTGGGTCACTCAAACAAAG  PBM binding z-score           0.867
 3  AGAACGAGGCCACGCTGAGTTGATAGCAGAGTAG  PBM binding z-score            2.31
 4  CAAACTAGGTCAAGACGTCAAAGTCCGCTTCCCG  PBM binding z-score            8.15
 5  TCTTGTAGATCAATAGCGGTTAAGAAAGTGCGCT  PBM binding z-score           0.605
 6  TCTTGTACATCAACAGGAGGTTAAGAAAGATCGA  PBM binding z-score           0.927
 7  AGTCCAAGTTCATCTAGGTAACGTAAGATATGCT  PBM binding z-score            2.16
 8  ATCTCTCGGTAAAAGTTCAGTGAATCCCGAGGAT  PBM binding z-score            1.24
 9  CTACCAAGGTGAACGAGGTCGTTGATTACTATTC  PBM binding z-score            2.89
10  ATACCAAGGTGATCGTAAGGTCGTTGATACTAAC  PBM binding z-score            1.51
11  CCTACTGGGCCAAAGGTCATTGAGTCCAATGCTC  PBM binding z-score            6.83
12  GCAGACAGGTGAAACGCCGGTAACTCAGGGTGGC  PBM binding z-score           0.227
13  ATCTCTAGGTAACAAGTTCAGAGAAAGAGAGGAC  PBM binding z-score            2.66
14  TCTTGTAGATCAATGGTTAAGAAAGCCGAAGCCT  PBM binding z-score           0.567
15  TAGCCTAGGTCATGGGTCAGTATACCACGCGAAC  PBM binding z-score            4.28
16  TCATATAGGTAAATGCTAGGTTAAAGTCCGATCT  PBM binding z-score            2.47
17  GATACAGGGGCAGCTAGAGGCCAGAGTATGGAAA  PBM binding z-score           0.442
18  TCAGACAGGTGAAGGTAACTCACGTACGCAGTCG  PBM binding z-score            1.17
19  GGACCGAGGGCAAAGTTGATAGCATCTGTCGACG  PBM binding z-score            1.67
20  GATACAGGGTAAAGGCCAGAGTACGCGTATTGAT  PBM binding z-score            2.64
21  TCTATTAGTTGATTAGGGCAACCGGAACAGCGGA  PBM binding z-score             1.3
22  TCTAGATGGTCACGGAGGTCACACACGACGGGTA  PBM binding z-score            3.58
23  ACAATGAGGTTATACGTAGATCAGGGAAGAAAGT  PBM binding z-score            1.93
24  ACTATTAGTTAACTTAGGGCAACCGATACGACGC  PBM binding z-score           0.837
25  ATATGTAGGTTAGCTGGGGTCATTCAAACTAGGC  PBM binding z-score            6.34

Every entry's value here was drawn from the supplement of paper PMC6555819.
